Item-by-item account of GI50
# System: HCC 2998
# method: NCI tumour cell line growth inhibition, 48 h
The source made the active and inactive calls. Cut-off read from the data, not from the text of the source: active = GI50 up to about 1.1 µM and inactive = higher.

Worked examples follow.
> print(dat)
                                   molecule  measurement.type  recorded.measurement
1   SC1CCCN(Cc2ccccc2)C1 (stereo not given)              GI50    16.2 µM (inactive)
2  C[C@H]1CC[C@H]([C@@H](C)[C@H]2[C@@H](O)C[C@H]3[C@@H]4CC[C@H]5C[C@@H](O)CC[C@]5(C)[C@H]4CC[C@]23C)NC1              GI50    18.6 µM (inactive)
3  CCCC[S+]([O-])CC(CO)NC(=O)/C=C/c1c(C)[nH]c(=O)[nH]c1=O (stereo not given)              GI50    8.28 µM (inactive)
4  O=C1[C@@H]2C(c3ccncc3)=NO[C@@H]2C(=O)N1c1ccc(Cc2ccc(N3C(=O)[C@H]4C(c5ccncc5)=NO[C@H]4C3=O)cc2)cc1              GI50   > 100 µM (inactive)
5            COC(=O)c1cc(C#N)[nH]c1-c1cccs1              GI50   > 100 µM (inactive)
6  C/C=C1/CN2CCC34c5ccccc5N(C)C23C2CC1C4(C(=O)OC)C(O)O2 (stereo not given)              GI50   > 100 µM (inactive)

Annotate the molecule `NS(=O)(=O)c1ccc(NC(=O)c2ccc3nc4ccccc4c(Nc4ccc(S(N)(=O)=O)cc4)c3c2)cc1` with its measured GI50. > 100 µM (inactive)

Annotate the molecule `O=C(NCC(=O)N1CCOC1=O)OCc1ccccc1` with its measured GI50. > 100 µM (inactive)

Annotate the molecule `CCC1(CC)C(=O)N(C(=O)c2ccccc2)N(C(=O)c2ccc(Cl)cc2)C1=O` with its measured GI50. > 75 µM (inactive)

Annotate the molecule `CCOC(=O)/C(=C\n1c(=O)sc2ccccc21)C(=O)c1ccccc1` with its measured GI50. > 100 µM (inactive)

Annotate the molecule `Cc1cc(S(=O)(=O)NC2=Nc3cccc4cccc(c34)N2)c(S)cc1Cl` with its measured GI50. > 100 µM (inactive)

Annotate the molecule `COc1ccc2c(C)cc(N/N=C(\C)C=O)nc2c1` with its measured GI50. 11.9 µM (inactive)

Annotate the molecule `O=C(O)c1cc(=O)c2c(OCC(O)COc3cccc4oc(C(=O)O)cc(=O)c34)cccc2o1` with its measured GI50. > 100 µM (inactive)

Annotate the molecule `CN/C(=N\N)NS(=O)(=O)c1cc(C)c(Cl)cc1S` with its measured GI50. 87.7 µM (inactive)

Annotate the molecule `CC(C)=CCN=C(N)N` with its measured GI50. > 100 µM (inactive)

Data credit: ChEMBL document CHEMBL1201862
